src = the supplement of paper PMC7125110

B1: glmS ribozyme (parent)
chain: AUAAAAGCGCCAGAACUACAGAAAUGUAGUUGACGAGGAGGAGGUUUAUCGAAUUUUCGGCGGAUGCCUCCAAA

Variants of: B1
Assay: self-cleavage kobs at 10000 uM GlcN6P; higher = faster cleavage; RNA array
Conditions: with glucosamine-6-phosphate
Variants at the floor of the assay were thinned out.
Range-based classes on measured self-cleavage kobs at 10000 uM GlcN6P: low band: < 0.0001 s⁻¹; middle band: ≥ 0.0001 s⁻¹ and < 0.0004 s⁻¹; high band: ≥ 0.0004 s⁻¹

1. G43C C58G C71A : low band
2. C8A A39G G41U G66U C67G : low band
3. C8U G13U : low band
4. G35C A52G : low band
5. G37A A52U : low band

Request: Each variant maps to one class by self-cleavage kobs at 10000 uM GlcN6P. Which class for C16U G29A ?
Response: high band

Request: Each variant maps to one class by self-cleavage kobs at 10000 uM GlcN6P. Which class for A15G A33U ?
Response: low band

Request: Each variant maps to one class by self-cleavage kobs at 10000 uM GlcN6P. Which class for C16A U45G ?
Response: middle band

Request: Each variant maps to one class by self-cleavage kobs at 10000 uM GlcN6P. Which class for G43U G59C ?
Response: low band

Request: Each variant maps to one class by self-cleavage kobs at 10000 uM GlcN6P. Which class for A12C A14G A53U C67G ?
Response: high band
